# Lookup of reported TGI keyed by entry
- System: HT29 colon
- assay remarks: NCI tumour cell line growth inhibition, 48 h

Here is how some compounds turned out for TGI.
                                   compound     value
0         COC(=O)Cc1cc(=O)[nH]c2c1C(=O)CCC2  > 100 µM
1  C#CCN(Cc1ccc2nc(-c3ccccc3)c(N)nc2c1)c1cc(OC)c(OC)c(OC)c1     59 µM
2  NC(=O)CC(N=Cc1nc(-c2ccccc2)oc1O)C(=O)O (stereo not given)  > 100 µM

Sure, the documented TGI for `CC(=O)/C=C/c1ccc(OCc2ccc(Cl)cc2)cc1` is > 1000 µM

In plain terms, C=C1C(=O)OC2CC(C)C3C4OC4C(O)C3(C)C(O)C12 (stereo not given) has a documented TGI of 83.8 µM

So for CN(CCCCCl)P(=O)(OCc1ccc([N+](=O)[O-])o1)OCC1OC(n2cnc([N+](=O)[O-])c2N)C(O)C1O (stereo not given) , the logged TGI turned out to be > 100 µM

Value of measured TGI for the entry `CC(C)c1ccccc1SCc1cc(=O)cc(CSc2ccccc2C(C)C)o1` : 41.2 µM

Data provenance: PubChem BioAssay (NCI)
